This collection of values is drawn from PubChem BioAssay (NCATS).

- Tested on: C33A
- procedure_details: Primary qHTS to identify gynecologic anti-cancer compounds using libraries of approved drugs and bioactive compounds (AID 1345084); note: % is set by controls: 0 for no effect and ±100 for the full control effect; nearly all actives have a fitted effect of over 55% in size
- protocol_conditions: Gynecologic cancer cell panel viability, ATPlite luminescence, 48 h; series mostly up to 57.5 µM
- Excerpt: National Center for Advancing Translational Sciences [NCATS] Assay Overview: Chemotherapeutic drug responses vary from cancer to cancer and from patient to patient. […] ATPlite is a luminescence based assay reliant on the conversion of a luciferase substrate to light in the presence of ATP. As a cytotoxic compound will suppress growth and decrease the number of cells, the concentration of ATP will decrease, and less light signal will be detected in the well. […]
Records with an inconclusive call do not appear. Activity calls are given as the source filed them. Calls come from the whole dose curve; as a rule, active = well fitted cell-killing curve with a large enough effect; inconclusive = small, poorly fitted or top-dose-only effect, or effect the other way; inactive = flat fitted curve, though single readings scatter.
quantity_name: activity change, negative = cytotoxicity

- compound: "CC1=CC(=O)CC(C)(C)[C@H]1/C=C/C(CO)O[C@@H]1O[C@H](CO)[C@@H](O)[C@H](O)[C@H]1O (some centres undefined)"
  result: "inactive"
- compound: "O=C1CCC=CC1(O)C(=O)OCc1ccccc1O[C@@H]1O[C@H](CO)[C@@H](O)[C@H](O)[C@H]1O (some centres undefined)"
  result: "inactive"
- compound: "C[C@@H]1CN(Cc2ncccn2)C[C@H]1c1nc2c(cnn2C2CCOCC2)c(=O)[nH]1"
  result: "inactive"
- compound: "CC1(C)CC[C@@]2(C(=O)O[C@@H]3O[C@H](CO)[C@@H](O)[C@H](O)[C@H]3O)C(C1)C1=CCC3[C@@]4(C)CC[C@@H](O[C@@H]5O[C@H](C(=O)O)[C@@H](O[C@@H]6OC[C@@H](O)[C@H](O)[C@H]6O)[C@H](O[C@@H]6OC[C@](O)(CO)[C@H]6O)[C@H]5O)C(C)(C)C4CC[C@@]3(C)[C@]1(C)C[C@H]2O (some centres undefined)"
  result: "-0.239% [at 11.6 µM] (inactive)"
